Test system: MDA-MB-468
Experiment: Antiproliferative activity against human MDA-MB-468 cells assessed as cell viability incubated for 96 hrs by MTT assay
Type: functional, cell-based
Conditions: MDA-MB-468, 96 h
measure-name: IC50 (µM)

> print(dat)
                              line.notation  study.target  quantity.unit  recorded.number
1             CCc1ccc(/C=C2/SC(=S)NC2=O)cc1    MDA-MB-468             µM             39.8
2  N#Cc1cc2c(-c3ccc(F)cc3)nn(-c3ccc(F)cc3)c2[nH]c1=O    MDA-MB-468             µM             79.4
3  N#Cc1cc2c(-c3ccc(Cl)cc3)nn(-c3ccccc3)c2[nH]c1=O    MDA-MB-468             µM             13.5
4  N#Cc1cc2c(-c3ccc(Br)cc3)nn(-c3ccccc3)c2[nH]c1=O    MDA-MB-468             µM             13.2
5  Cc1ccc(-c2nn(-c3ccccc3)c3[nH]c(=O)c(C#N)cc23)cc1    MDA-MB-468             µM             32.4
6  COc1ccc(-c2nn(-c3ccccc3)c3[nH]c(=O)c(C#N)cc23)cc1    MDA-MB-468             µM             33.1
7  COc1ccc(-n2nc(-c3ccc(C)cc3)c3cc(C#N)c(=O)[nH]c32)cc1    MDA-MB-468             µM              7.9
8  Cc1ccc(-c2nn(-c3ccc(Cl)cc3)c3[nH]c(=O)c(C#N)cc23)cc1    MDA-MB-468             µM             71.6
